- TESTED ON: Factor X, P00742
- Sequence (P00742 whole entry, looked up): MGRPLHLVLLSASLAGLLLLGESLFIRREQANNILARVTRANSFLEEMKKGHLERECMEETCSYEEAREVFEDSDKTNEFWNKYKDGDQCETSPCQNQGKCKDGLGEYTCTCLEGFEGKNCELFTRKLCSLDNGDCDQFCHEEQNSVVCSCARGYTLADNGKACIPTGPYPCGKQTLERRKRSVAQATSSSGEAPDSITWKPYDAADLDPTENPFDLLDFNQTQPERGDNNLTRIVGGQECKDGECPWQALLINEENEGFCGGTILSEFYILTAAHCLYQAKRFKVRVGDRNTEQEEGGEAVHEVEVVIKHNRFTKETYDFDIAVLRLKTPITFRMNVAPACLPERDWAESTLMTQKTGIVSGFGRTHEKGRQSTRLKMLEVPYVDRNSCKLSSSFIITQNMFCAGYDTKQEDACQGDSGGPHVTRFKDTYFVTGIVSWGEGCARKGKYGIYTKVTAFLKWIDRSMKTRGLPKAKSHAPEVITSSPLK
REPORTED PROPERTY: kcat/KM (M⁻¹ s⁻¹)
Only the number, expressed in M⁻¹ s⁻¹, is required.

Please give measured kcat/KM of the following entry: FIXa-D104N/K106S/R318Y/R338E/E410N (mature FIX numbering) (protein) chain 1: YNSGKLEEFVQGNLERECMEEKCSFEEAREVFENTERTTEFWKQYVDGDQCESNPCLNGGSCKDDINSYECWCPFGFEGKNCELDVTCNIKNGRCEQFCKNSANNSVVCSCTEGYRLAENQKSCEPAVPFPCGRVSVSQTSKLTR chain 2: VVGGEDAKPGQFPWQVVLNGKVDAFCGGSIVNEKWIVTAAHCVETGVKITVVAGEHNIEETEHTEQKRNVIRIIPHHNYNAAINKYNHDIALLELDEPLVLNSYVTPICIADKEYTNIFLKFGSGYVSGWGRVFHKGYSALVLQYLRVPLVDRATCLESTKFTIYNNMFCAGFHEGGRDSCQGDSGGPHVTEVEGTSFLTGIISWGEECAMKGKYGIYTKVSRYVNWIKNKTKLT
2.6e+08
